# credit: PubChem BioAssay

# target_of_assay: Neurogenic locus notch homolog protein 2 (Homo sapiens) (UniProt Q04721)
# Sequence (Q04721 whole entry, looked up): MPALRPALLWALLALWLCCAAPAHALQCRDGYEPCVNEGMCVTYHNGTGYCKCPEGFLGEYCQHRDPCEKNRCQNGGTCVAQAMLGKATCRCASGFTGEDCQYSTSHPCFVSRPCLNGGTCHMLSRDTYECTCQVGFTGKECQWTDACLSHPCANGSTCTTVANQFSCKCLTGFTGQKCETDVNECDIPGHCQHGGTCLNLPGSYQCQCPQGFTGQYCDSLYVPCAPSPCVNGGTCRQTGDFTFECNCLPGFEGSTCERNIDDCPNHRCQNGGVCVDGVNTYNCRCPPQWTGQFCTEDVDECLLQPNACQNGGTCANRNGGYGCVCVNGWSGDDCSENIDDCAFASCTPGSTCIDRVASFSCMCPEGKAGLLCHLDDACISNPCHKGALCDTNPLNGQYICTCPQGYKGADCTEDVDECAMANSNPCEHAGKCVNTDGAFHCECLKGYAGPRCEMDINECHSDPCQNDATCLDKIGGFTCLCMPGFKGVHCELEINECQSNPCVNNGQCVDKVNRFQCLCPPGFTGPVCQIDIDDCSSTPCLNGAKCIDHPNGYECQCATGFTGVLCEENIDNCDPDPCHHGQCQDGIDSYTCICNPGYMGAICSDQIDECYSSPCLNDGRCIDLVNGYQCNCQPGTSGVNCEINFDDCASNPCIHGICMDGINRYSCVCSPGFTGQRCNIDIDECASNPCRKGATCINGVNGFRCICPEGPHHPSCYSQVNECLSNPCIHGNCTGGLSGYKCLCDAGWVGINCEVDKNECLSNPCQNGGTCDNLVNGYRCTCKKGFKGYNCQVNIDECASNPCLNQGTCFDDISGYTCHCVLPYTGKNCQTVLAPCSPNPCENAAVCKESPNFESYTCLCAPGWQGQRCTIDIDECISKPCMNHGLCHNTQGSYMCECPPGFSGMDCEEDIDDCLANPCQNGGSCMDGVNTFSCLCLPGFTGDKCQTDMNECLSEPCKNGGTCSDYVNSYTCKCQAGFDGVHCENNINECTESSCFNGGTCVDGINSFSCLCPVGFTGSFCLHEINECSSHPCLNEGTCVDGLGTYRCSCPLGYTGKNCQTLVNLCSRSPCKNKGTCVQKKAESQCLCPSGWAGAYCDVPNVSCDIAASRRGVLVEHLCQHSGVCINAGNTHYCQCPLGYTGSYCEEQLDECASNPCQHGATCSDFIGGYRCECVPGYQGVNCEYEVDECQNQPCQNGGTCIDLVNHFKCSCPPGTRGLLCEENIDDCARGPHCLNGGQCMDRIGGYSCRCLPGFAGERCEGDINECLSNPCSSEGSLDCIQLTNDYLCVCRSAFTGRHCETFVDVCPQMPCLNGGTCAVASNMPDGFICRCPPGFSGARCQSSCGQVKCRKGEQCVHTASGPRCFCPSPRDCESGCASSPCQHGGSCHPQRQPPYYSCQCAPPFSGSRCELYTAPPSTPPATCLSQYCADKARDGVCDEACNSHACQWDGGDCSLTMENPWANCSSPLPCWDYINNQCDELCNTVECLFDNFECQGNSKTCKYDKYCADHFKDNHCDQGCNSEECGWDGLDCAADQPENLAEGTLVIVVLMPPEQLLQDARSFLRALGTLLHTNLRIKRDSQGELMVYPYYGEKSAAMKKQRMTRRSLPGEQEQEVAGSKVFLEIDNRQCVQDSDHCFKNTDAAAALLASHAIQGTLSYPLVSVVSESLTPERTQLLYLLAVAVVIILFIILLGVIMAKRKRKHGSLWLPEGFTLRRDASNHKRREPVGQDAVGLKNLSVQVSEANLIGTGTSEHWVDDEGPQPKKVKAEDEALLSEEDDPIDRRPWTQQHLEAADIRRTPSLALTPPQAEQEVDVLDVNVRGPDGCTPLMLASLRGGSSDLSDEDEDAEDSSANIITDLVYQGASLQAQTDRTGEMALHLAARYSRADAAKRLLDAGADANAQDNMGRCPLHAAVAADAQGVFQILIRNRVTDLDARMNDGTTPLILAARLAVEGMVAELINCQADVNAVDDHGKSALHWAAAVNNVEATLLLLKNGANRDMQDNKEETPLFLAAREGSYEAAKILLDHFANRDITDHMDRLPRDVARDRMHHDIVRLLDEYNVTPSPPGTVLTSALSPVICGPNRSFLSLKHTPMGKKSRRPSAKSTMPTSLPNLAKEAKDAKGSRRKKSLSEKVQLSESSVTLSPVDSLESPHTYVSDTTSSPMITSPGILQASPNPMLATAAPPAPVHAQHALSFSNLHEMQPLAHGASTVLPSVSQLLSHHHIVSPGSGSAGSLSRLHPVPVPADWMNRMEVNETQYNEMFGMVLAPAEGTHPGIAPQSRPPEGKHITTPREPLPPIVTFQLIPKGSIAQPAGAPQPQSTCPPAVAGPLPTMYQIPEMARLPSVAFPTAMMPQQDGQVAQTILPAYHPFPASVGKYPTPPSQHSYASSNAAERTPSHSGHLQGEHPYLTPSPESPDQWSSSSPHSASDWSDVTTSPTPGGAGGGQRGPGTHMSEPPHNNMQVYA
# measurement_description: small molecules binding Notch2 protein – biochemical, small-molecule microarray, 635 nm fluorescence, stem cell growth factors, primary screen (AID 1073)
# assay_setup: higher = more signal
composite z-score values by entry

>  <compound>
COC(=O)[C@@]1(Cc2ccccc2)[C@H]2c3cc(C(=O)N4CCCC4)n(Cc4ccccc4)c3C[C@H]2CN1C(=O)c1ccccc1

>  <composite z-score>
1.69

$$$$
>  <compound>
CC(C)(C)OC(=O)CC[C@@]1(C(=O)N2CCCCC2)N=C(c2ccc(OCCCO)cc2)O[C@@H]1c1ccccc1N=[N+]=[N-]

>  <composite z-score>
1.66

$$$$
>  <compound>
COC(=O)[C@@]1(Cc2ccc(OC)cc2)[C@H]2c3cc(C(=O)N4CCCC4)n(CCF)c3C[C@H]2CN1C(=O)c1ccccc1

>  <composite z-score>
1.66

$$$$
>  <compound>
Cc1cc(C)c(C(O)C2C=CC3C(=O)N(c4ccccc4)C(=O)C3N2Nc2ccc([N+](=O)[O-])cc2)c(C)c1 (configuration not stated)

>  <composite z-score>
1.68

$$$$
>  <compound>
COc1ccc([Si](C)(C)[C@@H]2[C@@H](CCO)O[C@]3(C(=O)N(Cc4ccccc4)c4ccc(N5C(=O)COc6ccccc65)cc43)[C@H]2C)cc1

>  <composite z-score>
0.128

$$$$
>  <compound>
Cc1cc(C)c(C(O)C2C=CC3C(=O)N(c4ccccc4)C(=O)C3N2Nc2ccccc2)c(C)c1 (configuration not stated)

>  <composite z-score>
1.56

$$$$
>  <compound>
O=C1N(CCS(=O)(=O)c2ccccc2)c2ccccc2[C@H]2OC(c3ccc(OCCCO)cc3)=N[C@@]12CCS(=O)(=O)c1ccccc1

>  <composite z-score>
1.5

$$$$

---

# Test system: Plasmodium falciparum Sir2 (PF13_0152, Sir2A)
# measurement_description: Plasmodium falciparum Sir2A binding compounds – biochemical, small-molecule microarray, 635 nm fluorescence, primary screen (AID 1098);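 further: score merges spot fluorescence intensity with its signal-to-noise ratio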
# assay_setup: fluorescence 635 nm, higher = more signal
Would you please tag the item Criterion met when its composite z-score is 0.6 or above, and Criterion not met when it is below?

>  <compound>
COCCCNC(=O)[C@@]1(C)c2ccccc2C(=O)N(c2ccc(C)cn2)[C@H]1c1ccc(CO)cc1

>  <qualitative_label>
Criterion met

$$$$
>  <compound>
COC(=O)[C@H]1N=C(c2ccc(OCCCO)cc2)O[C@H]1c1ccccc1CN=[N+]=[N-]

>  <qualitative_label>
Criterion not met

$$$$
>  <compound>
O=C1C2C=CC(C(O)c3ccccn3)N(Nc3ccccc3)C2C(=O)N1c1ccccc1 (configuration not stated)

>  <qualitative_label>
Criterion met

$$$$
>  <compound>
C=CCC(OC(C)=O)[C@@H]1[C@@H](N(Cc2ccc(-c3cccc(C(F)(F)F)c3)o2)C(=O)c2cccc3ccccc23)c2cc(OCCCO)ccc2N1C(=O)c1ccc(-c2ccccc2)cc1 (some centres not stated)

>  <qualitative_label>
Criterion not met

$$$$
>  <compound>
COCCCNC(=O)[C@]1(Cc2ccccc2)N=C(c2ccc(OCCCO)cc2)O[C@@H]1c1ccccc1N=[N+]=[N-]

>  <qualitative_label>
Criterion met

$$$$
>  <compound>
[N-]=[N+]=Nc1ccccc1[C@H]1OC(c2ccc(OCCCO)cc2)=N[C@@]1(Cc1ccccc1)C(=O)NCc1ccccc1

>  <qualitative_label>
Criterion not met

$$$$
>  <compound>
COCCOC(=O)N1C(=O)[C@@]2(c3ccccc31)[C@H](c1ccc(OCCO)cc1)N1[C@H](c3ccccc3)[C@H](c3ccccc3)OC(=O)[C@H]1[C@@H]2C(=O)NC[C@H](O)c1ccccc1

>  <qualitative_label>
Criterion met

$$$$
